Test system: Saccharomyces cerevisiae;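 also: PSI is a weighted mean of sequencing reads over stability bins, variants kept only with over 10 reads, mCherry proximal and sfGFP distal, peptide attached via GGGS linker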
Assay: protein stability index of tFT-peptide fusion (C-terminal peptide) (PSI (0-1 scale)); higher = more stable (slower turnover)
Settings: genetic background: wild type; temperature: 30 C
Measured protein stability index of individual entries
Field format: numeric only.

Example results:
APGACWKERWVR    0.737
VGKSNKYEETHK    0.747
VPGCLGRFLFFL    0.29
ERGREVVSRGVQ    0.724
VCDIRSFALWYA    0.8
HRVPRLRGQNPP    0.635

(Q) Could you share which protein stability index value was measured for `PCPFSSPPPLTH` ?
(A) 0.763

(Q) What value of measured protein stability index is listed for `FSYPPSLVPFCS` ?
(A) 0.702

(Q) If you can, please state the reported protein stability index value of `LAPPPAAPRFCL` .
(A) 0.652

Origin of measurements: the supplement of paper PMC10724198
